Molecular target: rabbit cathepsin K (Oryctolagus cuniculus, UniProt P43236)
Sequence (P43236 115-329): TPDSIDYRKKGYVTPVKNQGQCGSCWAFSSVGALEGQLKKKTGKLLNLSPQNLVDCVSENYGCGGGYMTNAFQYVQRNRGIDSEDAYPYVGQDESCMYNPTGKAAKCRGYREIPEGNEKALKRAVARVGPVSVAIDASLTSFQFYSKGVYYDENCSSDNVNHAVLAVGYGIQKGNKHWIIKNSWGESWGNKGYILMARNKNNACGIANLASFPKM
Assay: Recombinant enzyme assay, rabbit cathepsin K
Details: footnote a: IC50
property: pIC50
Value format note: pIC50 is -log10 of concentration (mol/L); just state the number.

Value of measured pIC50 for the entry C#C[C@@H]1CN(C(=O)[C@H](CC(C)C)NC(=O)c2ccc(-c3nc(N4CCN(C)CC4)sc3F)cc2)[C@@H]2C(=O)CO[C@H]12 [MIV-711] : 8.48

###

Target: human cathepsin S (Homo sapiens, UniProt P25774)
Sequence (P25774 115-331): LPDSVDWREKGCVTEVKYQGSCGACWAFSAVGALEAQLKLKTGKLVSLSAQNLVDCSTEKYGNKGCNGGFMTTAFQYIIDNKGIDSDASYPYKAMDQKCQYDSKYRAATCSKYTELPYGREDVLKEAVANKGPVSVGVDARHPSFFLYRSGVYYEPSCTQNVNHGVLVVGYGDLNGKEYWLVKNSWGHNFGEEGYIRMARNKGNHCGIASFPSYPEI
property: pKi
Value format note: pKi is -log10 of concentration (mol/L); just state the number.

Case "C#C[C@@H]1CN(C(=O)[C@H](CC(C)C)NC(=O)c2ccc(-c3nc(N4CCN(C)CC4)sc3F)cc2)[C@@H]2C(=O)CO[C@H]12" , human cathepsin S (Homo sapiens, UniProt P25774), pKi recorded as 4.80

###

Target: rat cathepsin K (Rattus norvegicus)
Sequence (O35186 115-329): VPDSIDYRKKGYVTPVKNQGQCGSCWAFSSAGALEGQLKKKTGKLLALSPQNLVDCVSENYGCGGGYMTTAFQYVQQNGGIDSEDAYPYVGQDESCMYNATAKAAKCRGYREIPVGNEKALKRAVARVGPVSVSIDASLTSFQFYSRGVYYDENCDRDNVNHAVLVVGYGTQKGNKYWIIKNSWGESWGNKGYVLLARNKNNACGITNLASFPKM
Assay: Recombinant enzyme assay, rat cathepsin K
Conditions: footnote a: IC50
Method: Recombinant cathepsin K enzymes from all species were expressed in E. coli, purified and activated. Human cathepsin F and cathepsin S were expressed in Baculovirus, purified and activated. […] Assays were carried out in white polystyrene 96-well plates in a final volume of 100 µL. […] Plates were read in a Fluoroskan Ascent (Thermo Labsystems, Helsinki, Finland) in kinetic mode, with excitation and emission filters of 390 and 460 nm, respectively. […]
property: IC50 (nM)
Answer format: numeric, nM implied, no suffix.

Value of measured IC50 for the entry "C#C[C@@H]1CN(C(=O)[C@H](CC(C)C)NC(=O)c2ccc(-c3nc(N4CCN(C)CC4)sc3F)cc2)[C@@H]2C(=O)CO[C@H]12" : 240

###

Target: guinea pig cathepsin K
Experiment: Recombinant enzyme assay, guinea pig cathepsin K
Settings: geometric mean
property: Ki
Hi, when you answer, please include the unit after the number. Thanks!

Value of measured Ki for the entry C#C[C@@H]1CN(C(=O)[C@H](CC(C)C)NC(=O)c2ccc(-c3nc(N4CCN(C)CC4)sc3F)cc2)[C@@H]2C(=O)CO[C@H]12 [MIV-711] : 9.8 nM

###

Experiment: Monkey plasma pharmacokinetics, single oral dose
Assay type: in vivo, cynomolgus monkeys (Macaca fascicularis)
Conditions: 3 µmol/kg p.o. single dose, geometric mean (CV%)
property: Cmax (µM)
Answer format: numeric, µM implied, no suffix.

Value of measured Cmax for the entry C#C[C@@H]1CN(C(=O)[C@H](CC(C)C)NC(=O)c2ccc(-c3nc(N4CCN(C)CC4)sc3F)cc2)[C@@H]2C(=O)CO[C@H]12 [MIV-711] : 0.102

###

Molecular target: human cathepsin F (Homo sapiens, UniProt Q9UBX1)
Sequence (Q9UBX1 271-484): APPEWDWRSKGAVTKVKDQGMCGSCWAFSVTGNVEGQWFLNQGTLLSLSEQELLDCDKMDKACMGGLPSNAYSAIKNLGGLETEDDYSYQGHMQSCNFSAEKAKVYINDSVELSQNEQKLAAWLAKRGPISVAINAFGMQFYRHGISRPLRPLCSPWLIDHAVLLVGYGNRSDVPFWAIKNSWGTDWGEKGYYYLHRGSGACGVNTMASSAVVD
property: pKi
Value format note: pKi is -log10 of concentration (mol/L); just state the number.

Value of measured pKi for the entry "C#C[C@@H]1CN(C(=O)[C@H](CC(C)C)NC(=O)c2ccc(-c3nc(N4CCN(C)CC4)sc3F)cc2)[C@@H]2C(=O)CO[C@H]12" : 5.55

###

Target: human cathepsin H (Homo sapiens, UniProt P09668)
Sequence (P09668 98-335): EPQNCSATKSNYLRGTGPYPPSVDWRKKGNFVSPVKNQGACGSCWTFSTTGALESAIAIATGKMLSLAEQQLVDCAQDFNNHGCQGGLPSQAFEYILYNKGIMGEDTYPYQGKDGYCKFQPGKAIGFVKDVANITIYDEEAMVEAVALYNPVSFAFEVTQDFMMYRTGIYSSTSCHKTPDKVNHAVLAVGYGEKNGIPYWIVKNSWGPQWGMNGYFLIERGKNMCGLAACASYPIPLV
property: Ki

Value of measured Ki for the entry "C#C[C@@H]1CN(C(=O)[C@H](CC(C)C)NC(=O)c2ccc(-c3nc(N4CCN(C)CC4)sc3F)cc2)[C@@H]2C(=O)CO[C@H]12" : > 10 µM

###

Assay: Human plasma pharmacokinetics, single ascending dose study
Format: in vivo, human healthy subjects
Conditions: 200 mg single oral dose, geometric mean (CV%)
property: Cmax (nM)
Answer format: numeric, nM implied, no suffix.

Value of measured Cmax for the entry "C#C[C@@H]1CN(C(=O)[C@H](CC(C)C)NC(=O)c2ccc(-c3nc(N4CCN(C)CC4)sc3F)cc2)[C@@H]2C(=O)CO[C@H]12" : 756
